System: Nakaseomyces glabratus
Experiment: Antifungal activity against Candida glabrata 537 after 24 hrs by spectrophotometric analysis
Format: functional
Settings: Nakaseomyces glabratus, 537, 24 h
recorded endpoint: MIC80 (µg/mL)
Hi! Could you send only the number? It should be in µg/mL, unit omitted.

Examples with their reported MIC80 follow.
compound: Cc1ccnc2c1C(=O)c1sccc1C2=O
MIC80, µg/mL: 8
//
compound: CCCCc1ccnc2c1C(=O)c1sc([N+](=O)[O-])cc1C2=O
MIC80, µg/mL: 4
//
compound: O=C1c2cc([N+](=O)[O-])sc2C(=O)c2c(C(Br)Br)ccnc21
MIC80, µg/mL: 16
//
compound: CC(c1ccccc1)c1ccnc2c1C(=O)c1sc([N+](=O)[O-])cc1C2=O (stereo not given)
MIC80, µg/mL: 8
//
compound: O=C1c2cc([N+](=O)[O-])sc2C(=O)c2c(-c3ccco3)ccnc21
MIC80, µg/mL: 4
//
compound: O=Cc1ccnc2c1C(=O)c1sc([N+](=O)[O-])cc1C2=O
MIC80, µg/mL: 0.125

Query compound follows.
INPUT: Form field: reported MIC80 of O=C1c2cc([N+](=O)[O-])sc2C(=O)c2cccnc21
OUTPUT: 1

---

System: Nakaseomyces glabratus
Assay: Antifungal activity against Candida glabrata 537 after 24 hrs by spectrophotometric analysis
Assay type: functional
Details: Nakaseomyces glabratus, 537, 24 h
recorded endpoint: MIC80 (µg/mL)
Hi! Could you send only the number? It should be in µg/mL, unit omitted.

INPUT: Form field: reported MIC80 of Cc1ccnc2c1C(=O)c1scc([N+](=O)[O-])c1C2=O
OUTPUT: 4

INPUT: Form field: reported MIC80 of CCCc1ccnc2c1C(=O)c1sc([N+](=O)[O-])cc1C2=O
OUTPUT: 2

INPUT: Form field: reported MIC80 of OC(Cn1cncn1)(Cn1cncn1)c1ccc(F)cc1F
OUTPUT: 2

INPUT: Form field: reported MIC80 of CCCCc1cnc2c(c1)C(=O)c1sc([N+](=O)[O-])cc1C2=O
OUTPUT: 4

INPUT: Form field: reported MIC80 of CCc1ccnc2c1C(=O)c1sc([N+](=O)[O-])cc1C2=O
OUTPUT: 2

INPUT: Form field: reported MIC80 of O=C1c2cc([N+](=O)[O-])sc2C(=O)c2c(-c3ccccc3)ccnc21
OUTPUT: 16

INPUT: Form field: reported MIC80 of Cc1ccnc2cc3cc([N+](=O)[O-])sc3cc12
OUTPUT: 16

INPUT: Form field: reported MIC80 of Cc1ccnc2c1C(=O)c1sc([N+](=O)[O-])cc1C2=O
OUTPUT: 1

INPUT: Form field: reported MIC80 of CC(C)c1cnc2c(c1)C(=O)c1sc([N+](=O)[O-])cc1C2=O
OUTPUT: 4

INPUT: Form field: reported MIC80 of CCCc1cnc2c(c1)C(=O)c1sc([N+](=O)[O-])cc1C2=O
OUTPUT: 4

---

Test system: Candida parapsilosis
Assay: Antifungal activity against Candida parapsilosis 22019 after 24 hrs by spectrophotometric analysis
Format: functional
Details: Lodderomyces parapsilosis, 22019, 24 h
recorded endpoint: MIC80 (µg/mL)
Hi! Could you send only the number? It should be in µg/mL, unit omitted.

Examples with their reported MIC80 follow.
compound: CCOC(=O)c1ccnc2c1C(=O)c1sc([N+](=O)[O-])cc1C2=O
MIC80, µg/mL: 4

compound: O=Cc1ccnc2c1C(=O)c1sc([N+](=O)[O-])cc1C2=O
MIC80, µg/mL: 8

compound: O=C1c2cc([N+](=O)[O-])sc2C(=O)c2c(C(Br)Br)ccnc21
MIC80, µg/mL: 32

compound: CC(C)(C)c1cnc2c(c1)C(=O)c1sc([N+](=O)[O-])cc1C2=O
MIC80, µg/mL: 4

compound: CCCc1ccnc2c1C(=O)c1sc([N+](=O)[O-])cc1C2=O
MIC80, µg/mL: 0.5

Query compound follows.
INPUT: Form field: reported MIC80 of CCCc1cnc2c(c1)C(=O)c1sc([N+](=O)[O-])cc1C2=O
OUTPUT: 4

---

Tested on: Candida albicans
Assay: Antifungal activity against Candida albicans SC5314 after 48 hrs by spectrophotometric analysis
Assay type: functional
Details: SC5314, 48 h
recorded endpoint: MIC80 (µg/mL)
Hi! Could you send only the number? It should be in µg/mL, unit omitted.

INPUT: Form field: reported MIC80 of Cc1cnc2c(c1C)C(=O)c1sc([N+](=O)[O-])cc1C2=O
OUTPUT: 4

INPUT: Form field: reported MIC80 of CCCc1ccnc2c1C(=O)c1sc([N+](=O)[O-])cc1C2=O
OUTPUT: 0.5

INPUT: Form field: reported MIC80 of Cc1cnc2c(c1)C(=O)c1sc([N+](=O)[O-])cc1C2=O
OUTPUT: 0.5

INPUT: Form field: reported MIC80 of CCc1ccnc2c1C(=O)c1sc([N+](=O)[O-])cc1C2=O
OUTPUT: 0.25

---

Test system: Trichophyton rubrum
Assay: Antifungal activity against Trichophyton rubrum Cmccftla after 24 hrs by spectrophotometric analysis
Type: functional
// boundary case: MIC80 equal to 4 µg/mL maps to False; strictly smaller maps to True

compound: O=C1c2ccccc2-c2nccc3ccnc1c23 [SAMPANGINE]
assigned class: False

compound: O=C1c2cc([N+](=O)[O-])sc2C(=O)c2cccnc21
assigned class: True

compound: O=C1c2cc([N+](=O)[O-])sc2C(=O)c2c(-c3ccccc3)ccnc21
assigned class: False

Now look at this entry.
INPUT: Would you kindly verify if MIC80 of Cc1ccc(C(C)c2ccnc3c2C(=O)c2sc([N+](=O)[O-])cc2C3=O)o1 (configuration not stated) is strictly less than 4 µg/mL?
OUTPUT: True

---

System: Candida parapsilosis
Test: Antifungal activity against Candida parapsilosis 22019 after 24 hrs by spectrophotometric analysis
Format: functional
Details: Lodderomyces parapsilosis, 22019, 24 h
recorded endpoint: MIC80 (µg/mL)
Hi! Could you send only the number? It should be in µg/mL, unit omitted.

compound: O=C1c2cc([N+](=O)[O-])sc2C(=O)c2c(-c3ccco3)ccnc21
MIC80 / µg/mL: 4
//
compound: O=C1c2cc([N+](=O)[O-])sc2C(=O)c2c(-c3ccccc3)ccnc21
MIC80 / µg/mL: 8

INPUT: Form field: reported MIC80 of Cc1cc[n+]([O-])c2c1C(=O)c1sc([N+](=O)[O-])cc1C2=O
OUTPUT: 32

INPUT: Form field: reported MIC80 of CCc1ccnc2c1C(=O)c1sc([N+](=O)[O-])cc1C2=O
OUTPUT: 1

INPUT: Form field: reported MIC80 of CC(C)(C)OC(=O)/C=C/c1ccnc2c1C(=O)c1sc([N+](=O)[O-])cc1C2=O
OUTPUT: 32

INPUT: Form field: reported MIC80 of Cc1cnc2c(c1)C(=O)c1sc([N+](=O)[O-])cc1C2=O
OUTPUT: 1

INPUT: Form field: reported MIC80 of CC(c1ccccc1)c1ccnc2c1C(=O)c1sc([N+](=O)[O-])cc1C2=O (stereo not given)
OUTPUT: 4

INPUT: Form field: reported MIC80 of CC(C)c1cnc2c(c1)C(=O)c1sc([N+](=O)[O-])cc1C2=O
OUTPUT: 4

---

Test system: Trichophyton rubrum
Test: Antifungal activity against Trichophyton rubrum Cmccftla after 24 hrs by spectrophotometric analysis
Assay type: functional
// boundary case: MIC80 equal to 4 µg/mL maps to condition not met; strictly smaller maps to condition met

Answered cases to consult:
compound: Cc1ccnc2c1C(=O)C1=C(OC(C)(C)C1)C2=O
tested system: Trichophyton rubrum
assigned class: condition not met
//
compound: CC(c1ccccc1)c1ccnc2c1C(=O)c1sc([N+](=O)[O-])cc1C2=O (centres undefined)
tested system: Trichophyton rubrum
assigned class: condition met
//
compound: CCOC(=O)c1ccnc2c1C(=O)c1sc([N+](=O)[O-])cc1C2=O
tested system: Trichophyton rubrum
assigned class: condition met

INPUT: Would you kindly verify if MIC80 of Cc1ccnc2c1C(=O)c1sc(N)cc1C2=O is strictly less than 4 µg/mL?
OUTPUT: condition not met

INPUT: Would you kindly verify if MIC80 of CCc1cnc2c(c1)C(=O)c1sc([N+](=O)[O-])cc1C2=O is strictly less than 4 µg/mL?
OUTPUT: condition met

INPUT: Would you kindly verify if MIC80 of O=C1c2cc([N+](=O)[O-])sc2C(=O)c2c(C3CCNCC3)ccnc21 is strictly less than 4 µg/mL?
OUTPUT: condition not met

INPUT: Would you kindly verify if MIC80 of CC(C)(C)c1cnc2c(c1)C(=O)c1sc([N+](=O)[O-])cc1C2=O is strictly less than 4 µg/mL?
OUTPUT: condition met
